Just for reference, patent US20190233528A1 is where these values come from.

# reported t1/2; entries follow
- Measured On: T1, recombinant human CD70 (AviTag, polyhistidine tag and chicken tenascin trimerization domain fused to the … (chicken; human, UniProt P10039 110-139, limits assumed)
- T1 construct: domain: trimerization domain; Expressed in Expi293, purified by IMAC and SEC; Copies 3 is inferred from the trimerization domain; not shown: AviTag; polyhistidine tag
- T1 sequence: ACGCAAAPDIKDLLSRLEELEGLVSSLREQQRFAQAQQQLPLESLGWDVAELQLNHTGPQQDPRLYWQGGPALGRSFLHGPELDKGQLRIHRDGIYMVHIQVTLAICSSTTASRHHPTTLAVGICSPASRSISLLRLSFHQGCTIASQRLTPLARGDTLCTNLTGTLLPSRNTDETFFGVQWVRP
- Assay Procedure: SPR (Biacore 8K, 37 C): CD70 captured via anti-AviTag antibody on C1 chip, scFv-Fc as analyte; 1:1 Langmuir fit
Endpoint: t1/2 (min)

- P12B09 anti-CD70 scFv-Fc fusion (Fc fusion, scFv-Fc expressed in Expi293; not shown: part of the hinge and Fc from a modified human IgG2) EVQLLESGGGLVQPGGSLRLSCAASGFTFSQYSMSWVRQAPGKGLEWVSAISGGGVSTYYADSVKGRFTISRDNSKNTLYLQMNSLRAEDTAVYYCASDISDSGGSHWYFDYWGQGTLVTVSSGGGGSGGGGSGGGGSGGGGSELDIQMTQSPSSLSASVGDRVTITCRASQYIGRYLNWYQQKRGKAPKLLIHGATSLASGVPSRFSGSGSGTDFTLTISSLQPEDFATYYCQQSYSTTSPTFGQGTKVEIK: 8.6
- P13F04 anti-CD70 scFv-Fc fusion (Fc fusion, scFv-Fc expressed in Expi293; not shown: part of the hinge and Fc from a modified human IgG2) QVQLVQSGAEVKKPGSSVKVSCKASGGTFSSYAISWVRQAPGQGLEWMGEIIPIFGTASYAQKFQGRVTITADESTSTAYMELSSLRSEDTAVYYCARAGWDDSWFDYWGQGTLVTVSSGGGGSGGGGSGGGGSGGGGSELQSVLTQPPSASGTPGQRVTISCSGSNSNIGTNYVSWYQQLPGTAPKLLIYRSSRRPSGVPDRFSGSKSGTSASLAISGLRSEDEADYYCAAWDGSLSGHWVFGTGTKLTVL: 0.6
- 12C4 anti-CD70 scFv-Fc fusion (Fc fusion, scFv-Fc expressed in Expi293; not shown: part of the hinge and Fc from a modified human IgG2) QVQLVQSGAEVKKPGASVKVSCKASGYTFTGYYLHWVRQAPGQGLEWMGWINPNSGGTNYAQKFQGRVTMTRDTSITTAYMELSRLRIDDTAVYYCARDRGVTMIVDGMDDWGQGTTVTVSSGGGGSGGGGSGGGGSGGGGSDIVMTQSPLSLPVTPGEPASISCRSSQSLLHSNGYNYLDWYLQKPGQSPQVLILLGSNRASGVPDRVSASGSGTDFTLKISRMQAEDVGIYYCMQTLQTPFTFGQGTKLEIK: 25.3
- 11C1 anti-CD70 scFv-Fc fusion (Fc fusion, scFv-Fc expressed in Expi293; not shown: part of the hinge and Fc from a modified human IgG2) QVQLQESGPGLVKPSETLSLNCTVSGGSISYYYWTWIRQPPGKGLEWIGHVIYSGTTNYNPSLKSRVTISVDTSKNQFSLKLNSVTAADTAVYYCVRAEGSLDAFDLWGQGTMVTVSSGGGGSGGGGSGGGGSGGGGSDIQMTQSPSILSASVGDRVTITCRASQSVSSWLAWYQQKPGKAPKVLIYKASSLESGVPSRFSGTGSGTEFTLTISSLQSDDFATYYCQQYNTYSHTFGQGTKLEIK: 62.2
- P12F02 anti-CD70 scFv-Fc fusion (Fc fusion, scFv-Fc expressed in Expi293; not shown: part of the hinge and Fc from a modified human IgG2) EVQLLESGGGLVQPGGSLRLSCAASGFTFSSYAMSWVRQAPGKGLEWVSTISGTGGTTYYADSVKGRFTISRDNSKNTLYLQMNSLRAEDTAVYYCAKVRAGIDPTASDVWGQGTLVTVSSGGGGSGGGGSGGGGSGGGGSELQSVLTQPPSASGTPGQRVTISCSGSTSNIGRNYVYWYQQLPGTAPKLLIYRTNQRPSGVPDRFSGSKSGTSASLAISGLRSEDEADYYCAAWDDSLSGRVFGTGTKLTVL: 7.4
